For each record, write down the corresponding inhibition.
- Study Target: Platelet-activating factor acetylhydrolase (Homo sapiens) (UniProt Q13093)
- Sequence (Q13093 whole entry, looked up): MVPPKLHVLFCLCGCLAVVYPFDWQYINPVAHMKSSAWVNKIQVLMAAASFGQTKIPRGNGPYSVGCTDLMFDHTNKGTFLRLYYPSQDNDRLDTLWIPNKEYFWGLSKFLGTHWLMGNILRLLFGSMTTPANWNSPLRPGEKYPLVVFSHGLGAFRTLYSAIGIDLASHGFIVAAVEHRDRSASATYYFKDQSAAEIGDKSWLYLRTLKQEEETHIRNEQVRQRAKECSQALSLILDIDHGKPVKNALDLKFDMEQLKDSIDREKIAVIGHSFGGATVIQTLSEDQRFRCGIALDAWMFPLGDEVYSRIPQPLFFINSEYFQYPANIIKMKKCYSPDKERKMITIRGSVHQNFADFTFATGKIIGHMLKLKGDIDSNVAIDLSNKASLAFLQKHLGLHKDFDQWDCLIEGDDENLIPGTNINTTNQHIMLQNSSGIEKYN
- Test: pPAFAH enzyme inhibitors, primary screen, biochemical, fluorescence polarization, human (AID 463082);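 also: inhibitors block binding of the rhodamine activity-based probe so polarization drops; 0% = enzyme with DMSO and 100% = wells lacking pPAFAH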
- Experimental Context: recombinant pPAFAH, FP-rhodamine probe fluorescence polarization; at 3.39 µM; hits give high values
Hit rate of the full screen: of about 330,000 compounds, about 4,900 (1.5%) were called active. This excerpt belongs to a sample that is enriched for actives.
One number for each entry, in %.

Record excerpt, results attached:
{"columns": ["Molecule", "inhibition (%)"],
 "data": [
  ["CCCCCCSc1ccc([C@@H]2[C@H]3C(=O)N(CC)C(=O)[C@H]3[C@]3(C(=O)OC)CCCCN23)cc1", 6.84],
  ["COc1cc([N+](=O)[O-])ccc1NC(=O)COC(=O)CCOc1ccc(C)cc1", 6.88],
  ["O=C(COC(=O)c1ccc(Oc2ccccc2)cc1)Nc1nnc(-c2ccccc2)o1", 25],
  ["O=C(COC(=O)c1ccco1)NCc1ccc(Cl)cc1", 0.66],
  ["CCC(C)N(C(=O)Cn1nc(C)c([N+](=O)[O-])c1C)C1CCS(=O)(=O)C1 (stereo unspecified)", -1.29],
  ["CN(C)C(=O)c1nc2ccc(Cl)cn2c1CNCc1cccc(OC(F)(F)F)c1", 27.7],
  ["CC(=O)Nc1ccc(S(=O)(=O)N2CCN(C(=O)c3ccccc3F)CC2)cc1", -5.31],
  ["CC(C)(C)OC(=O)NCCCC1=CC2=CC(=O)C(C)(OC(=O)c3ccco3)C(=O)C2=CO1 (stereo unspecified)", 33.5]
]}

# per-item lookup of inhibition; items listed below
1. COc1ccccc1C(=O)Nc1cccc(C(=O)N2CCOCC2)c1
2. CC(C)C[C@H](NC(=O)N1CCn2c1nc1ccccc12)C(=O)NC1CC1
3. O=C1C=C(c2cccc(Cl)c2O)C[C@@H](c2ccc(F)cc2)C1
4. CC(C)Oc1c(Br)cc(Br)cc1/C=N/NC(N)=S
5. N#C/C(=C\c1ccc(O)c(O)c1)C(=O)NCc1ccccc1

Result:
[-0.6, 1.86, 4.07, 1.45, 28.2]

# per-item lookup of inhibition; items listed below
1. COc1ccc(/C=C2\SC(=S)N(CCCC(=O)NC3CCCC3)C2=O)cc1OC
2. CCCCCCCCCCCCCCCC(=O)OC/C=C(C)/C=C/C=C(C)/C=C/C1=C(C)CCCC1(C)C
3. COC(=O)CCCC1=CC2=CC(=O)C(C)(OC(=O)c3cccs3)C(=O)C2=CN1c1cccc(C#N)c1 (stereo unspecified)
4. O=C(COC(=O)c1ccccc1Br)Nc1nnc(-c2ccccc2)o1
5. O=C(CCCN1C(=O)/C(=C/c2ccco2)SC1=S)Nc1ccccc1
6. O=C(Nc1ccccc1C(=O)N1CCOCC1)c1ccc(CSc2ccccc2)cc1
7. COc1cccc(NS(=O)(=O)c2ccc3[nH]cc(C(=O)NCCCOC(C)C)c(=O)c3c2)c1

Result:
1: -4.96; 2: 25.7; 3: 7.86; 4: 4.87; 5: 25.9; 6: 4.67; 7: 29

====

- Study Target: Platelet-activating factor acetylhydrolase (Homo sapiens) (UniProt Q13093)
- Test: pPAFAH enzyme inhibitors, primary screen, biochemical, fluorescence polarization, human (AID 463082);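 also: inhibitors block binding of the rhodamine activity-based probe so polarization drops; 0% = enzyme with DMSO and 100% = wells lacking pPAFAH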
- Experimental Context: recombinant pPAFAH, FP-rhodamine probe fluorescence polarization; at 3.39 µM; hits give high values
Hit rate of the full screen: of about 330,000 compounds, about 4,900 (1.5%) were called active. This is one part of a sample in which actives are shown more often than they occur.
Quantity Name: inhibition

Record excerpt, results attached:
{"columns": ["Compound", "Quantity Name", "Value Observed"],
 "data": [
  ["COc1ccc(S(=O)(=O)N(C)C[C@@H]2Oc3ccc(NC(=O)Nc4c(C)noc4C)cc3C(=O)N([C@H](C)CO)C[C@@H]2C)cc1", "inhibition", "1.97% (inactive)"],
  ["COc1ccc(C(CNC(=O)c2cccc(NS(=O)(=O)c3ccc(C)c(F)c3)c2)N2CCCC2)cc1 (stereo not given)", "inhibition", "5.75% (inactive)"],
  ["CCOC(=O)c1sc(NC(=O)C2CSC3(C)CCC(=O)N23)nc1C (stereo not given)", "inhibition", "0.96% (inactive)"],
  ["O=C(N/N=C\\c1cc(Br)c(Br)o1)C1COc2ccccc2O1 (stereo not given)", "inhibition", "-1.47% (inactive)"],
  ["C[C@H](CO)N1C[C@H](C)[C@@H](CN(C)C(=O)Nc2ccc3c(c2)OCO3)Oc2c(cccc2N(C)C)C1=O", "inhibition", "3.8% (inactive)"]
]}

# per-item lookup of inhibition; items listed below
1. COc1ccc(C)cc1NC(=O)CSc1nnc(CC(=O)Nc2ccccc2F)n1C
2. COc1ccccc1NC(=O)CCN1CCN(c2ccc(Cl)cc2)CC1
3. O=C(c1ccco1)N(Cc1nc2ccccc2c(=O)[nH]1)C1CCCC1
4. CCC(=C/c1sc2ccc3ccccc3c2[n+]1C)/C=C1\Sc2ccc3ccccc3c2N1C

Result:
["4.03% (inactive)", "6.99% (inactive)", "2.71% (inactive)", "32.4% (active)"]

# per-item lookup of inhibition; items listed below
1. COc1ccc(C(CNC(=O)c2cccc(S(=O)(=O)Nc3ccccc3Cl)c2)N2CCOCC2)cc1 (stereo not given)
2. Cc1cc(C)c2c(Cn3ccnc3)cc(=O)oc2c1

Result:
1: -3.75% (inactive); 2: -1.95% (inactive)

# per-item lookup of inhibition; items listed below
1. O=C(Nc1ccc(Cl)cc1)C1c2cccc[n+]2CC(=O)N1Cc1ccc2c(c1)OCO2 (stereo not given)
2. O=C(COC(=O)c1ccc(S(=O)(=O)N2CCc3ccccc3C2)cc1)NC(=O)NCc1ccco1
3. COc1cc(NC(=O)CCS(=O)(=O)c2ccc3c(c2)oc(=O)n3C)cc(OC)c1
4. Cc1cc(S(=O)(=O)Nc2ccc(C(=O)NCC(c3ccco3)N3CCCC3)cc2)ccc1F (stereo not given)
5. CN(CC(=O)Nc1c(Cl)cccc1Cl)C(=O)CC1OC(=O)c2ccccc21 (stereo not given)
6. CC(=O)N1c2ccc(S(=O)(=O)NCCC(=O)N(C)C3CCCCC3)cc2CC1C (stereo not given)
7. COc1ccc(C(CNC(=O)c2ccc(S(=O)(=O)Nc3ccccc3C)cc2)N2CCOCC2)cc1 (stereo not given)

Result:
25.9% (active)
-5.65% (inactive)
3.91% (inactive)
-0.43% (inactive)
1.34% (inactive)
1.62% (inactive)
33.2% (active)

# per-item lookup of inhibition; items listed below
1. O=C(CNC(=O)C1COc2ccccc2O1)N/N=C/c1cc(Br)c(O)c(Br)c1 (stereo not given)
2. CN(CC(=O)Nc1ccc(OC(F)(F)F)cc1)C(=O)C1CCC1

Result:
1: 26.3% (active); 2: 2.02% (inactive)
